All figures here come from ChEMBL document CHEMBL1142433.

Entries and their EC50
biological target: Glutamate receptor 1 (Rattus norvegicus); experiment: Activity at rat cloned iGluR1 expressed in human HEK293 cells by calcium imaging assay
Sequence (P19490 whole entry): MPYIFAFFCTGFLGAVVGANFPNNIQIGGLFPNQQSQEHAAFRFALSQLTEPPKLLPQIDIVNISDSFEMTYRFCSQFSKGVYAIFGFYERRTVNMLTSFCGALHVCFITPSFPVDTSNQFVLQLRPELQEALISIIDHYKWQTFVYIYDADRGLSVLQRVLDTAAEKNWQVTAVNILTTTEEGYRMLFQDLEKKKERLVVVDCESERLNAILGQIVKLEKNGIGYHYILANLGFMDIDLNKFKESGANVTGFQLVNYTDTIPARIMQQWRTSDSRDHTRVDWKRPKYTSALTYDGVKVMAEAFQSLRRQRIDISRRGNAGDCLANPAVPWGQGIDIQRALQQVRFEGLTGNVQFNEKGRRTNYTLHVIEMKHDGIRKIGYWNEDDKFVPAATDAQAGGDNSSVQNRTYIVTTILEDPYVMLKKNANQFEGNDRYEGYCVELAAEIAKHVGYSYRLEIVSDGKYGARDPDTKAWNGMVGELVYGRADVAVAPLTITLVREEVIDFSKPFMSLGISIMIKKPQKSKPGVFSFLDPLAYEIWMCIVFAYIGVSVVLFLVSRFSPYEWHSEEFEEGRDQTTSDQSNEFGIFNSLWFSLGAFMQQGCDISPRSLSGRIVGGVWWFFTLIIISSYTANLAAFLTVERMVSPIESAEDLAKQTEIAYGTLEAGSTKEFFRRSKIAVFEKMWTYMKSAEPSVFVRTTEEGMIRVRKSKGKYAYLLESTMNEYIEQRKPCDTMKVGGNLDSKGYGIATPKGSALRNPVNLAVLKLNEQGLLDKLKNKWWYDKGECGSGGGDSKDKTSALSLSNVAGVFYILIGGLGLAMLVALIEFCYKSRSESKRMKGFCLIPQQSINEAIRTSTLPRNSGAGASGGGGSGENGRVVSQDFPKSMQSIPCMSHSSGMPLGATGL
measured.attribute: EC50

1. N[C@@H](C(=O)O)[C@@H]1CC(O)=NO1	> 1 mM
2. N[C@H](C(=O)O)[C@@H]1CC(O)=NO1	0.12 mM
3. N[C@@H](C(=O)O)[C@H]1CC(O)=NO1	> 1 mM
4. N[C@H](C(=O)O)c1cc(=O)[nH]o1 [IBOTENIC ACID]	> 1 mM
5. N[C@H](C(=O)O)[C@H]1CC(O)=NO1	> 1 mM

* * *

Activity values for the compounds below.
biological target: Glutamate receptor 3 (Rattus norvegicus); test: Activity at rat cloned iGluR3 expressed in human HEK293 cells by calcium imaging assay relative to L-glutamate; type: cell-based; set-up: concentration or dose not given beside the values
measured.attribute: Activity

1. N[C@H](C(=O)O)[C@@H]1CC(O)=NO1	88%
2. N[C@H](C(=O)O)c1cc(O)no1	1%
3. N[C@@H](C(=O)O)[C@H]1CC(O)=NO1	10%
4. N[C@H](C(=O)O)[C@H]1CC(O)=NO1	23%
5. N[C@@H](C(=O)O)[C@@H]1CC(O)=NO1	10%

* * *

Each record here notes measured pEC50.
target: Glutamate receptor 4 (Rattus norvegicus, UniProt P19493); test: Activity at rat cloned iGluR4 expressed in human HEK293 cells by calcium imaging assay
Sequence (P19493 whole entry): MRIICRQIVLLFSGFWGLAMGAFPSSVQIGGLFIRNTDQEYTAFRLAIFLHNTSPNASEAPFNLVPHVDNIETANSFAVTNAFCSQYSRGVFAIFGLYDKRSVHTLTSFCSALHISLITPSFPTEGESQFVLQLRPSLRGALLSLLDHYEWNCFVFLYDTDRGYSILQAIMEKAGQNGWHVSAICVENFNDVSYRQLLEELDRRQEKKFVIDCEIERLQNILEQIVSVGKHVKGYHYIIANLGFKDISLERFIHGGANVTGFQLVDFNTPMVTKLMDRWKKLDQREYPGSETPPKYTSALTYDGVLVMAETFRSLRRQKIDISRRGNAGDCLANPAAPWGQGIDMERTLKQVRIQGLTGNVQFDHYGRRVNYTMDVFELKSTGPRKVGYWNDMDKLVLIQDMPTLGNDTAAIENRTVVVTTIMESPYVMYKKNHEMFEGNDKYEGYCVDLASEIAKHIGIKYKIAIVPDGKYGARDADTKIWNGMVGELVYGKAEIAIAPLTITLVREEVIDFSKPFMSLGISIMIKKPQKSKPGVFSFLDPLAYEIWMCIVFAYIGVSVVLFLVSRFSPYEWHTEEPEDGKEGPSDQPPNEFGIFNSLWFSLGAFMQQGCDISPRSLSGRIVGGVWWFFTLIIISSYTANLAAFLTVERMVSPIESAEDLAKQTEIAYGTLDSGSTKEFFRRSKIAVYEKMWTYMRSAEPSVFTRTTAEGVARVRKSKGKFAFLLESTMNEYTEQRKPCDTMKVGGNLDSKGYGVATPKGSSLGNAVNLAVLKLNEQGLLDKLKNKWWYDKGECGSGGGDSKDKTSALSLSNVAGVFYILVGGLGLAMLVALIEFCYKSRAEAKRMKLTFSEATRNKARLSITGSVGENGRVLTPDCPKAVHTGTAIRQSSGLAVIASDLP
pEC50: −log10 of the molar value.
measured.attribute: pEC50

1. N[C@@H](C(=O)O)[C@@H]1CC(O)=NO1	< 3.00
2. N[C@H](C(=O)O)[C@H]1CC(O)=NO1	< 3.00
3. N[C@H](C(=O)O)c1cc(=O)[nH]o1	< 3.00
4. N[C@H](C(=O)O)[C@@H]1CC(O)=NO1	4.52
5. N[C@@H](C(=O)O)[C@H]1CC(O)=NO1	< 3.00

* * *

molecular target: Glutamate receptor 2 (Rattus norvegicus); assay: Activity at rat cloned iGluR2 expressed in human HEK293 cells by calcium imaging assay
measured.attribute: EC50

1) N[C@H](C(=O)O)c1cc(=O)[nH]o1 [IBOTENIC ACID]	> 1000 µM
2) N[C@H](C(=O)O)[C@H]1CC(O)=NO1	> 1000 µM
3) N[C@@H](C(=O)O)[C@H]1CC(O)=NO1	> 1000 µM
4) N[C@H](C(=O)O)[C@@H]1CC(O)=NO1	480 µM
5) N[C@@H](C(=O)O)[C@@H]1CC(O)=NO1	> 1000 µM

* * *

pEC50 values for the compounds below.
target: Glutamate receptor 3 (Rattus norvegicus, UniProt P19492); test: Activity at rat cloned iGluR3 expressed in human HEK293 cells by calcium imaging assay; type: cell-based; conditions: read-out: EC50
Sequence (P19492 whole entry): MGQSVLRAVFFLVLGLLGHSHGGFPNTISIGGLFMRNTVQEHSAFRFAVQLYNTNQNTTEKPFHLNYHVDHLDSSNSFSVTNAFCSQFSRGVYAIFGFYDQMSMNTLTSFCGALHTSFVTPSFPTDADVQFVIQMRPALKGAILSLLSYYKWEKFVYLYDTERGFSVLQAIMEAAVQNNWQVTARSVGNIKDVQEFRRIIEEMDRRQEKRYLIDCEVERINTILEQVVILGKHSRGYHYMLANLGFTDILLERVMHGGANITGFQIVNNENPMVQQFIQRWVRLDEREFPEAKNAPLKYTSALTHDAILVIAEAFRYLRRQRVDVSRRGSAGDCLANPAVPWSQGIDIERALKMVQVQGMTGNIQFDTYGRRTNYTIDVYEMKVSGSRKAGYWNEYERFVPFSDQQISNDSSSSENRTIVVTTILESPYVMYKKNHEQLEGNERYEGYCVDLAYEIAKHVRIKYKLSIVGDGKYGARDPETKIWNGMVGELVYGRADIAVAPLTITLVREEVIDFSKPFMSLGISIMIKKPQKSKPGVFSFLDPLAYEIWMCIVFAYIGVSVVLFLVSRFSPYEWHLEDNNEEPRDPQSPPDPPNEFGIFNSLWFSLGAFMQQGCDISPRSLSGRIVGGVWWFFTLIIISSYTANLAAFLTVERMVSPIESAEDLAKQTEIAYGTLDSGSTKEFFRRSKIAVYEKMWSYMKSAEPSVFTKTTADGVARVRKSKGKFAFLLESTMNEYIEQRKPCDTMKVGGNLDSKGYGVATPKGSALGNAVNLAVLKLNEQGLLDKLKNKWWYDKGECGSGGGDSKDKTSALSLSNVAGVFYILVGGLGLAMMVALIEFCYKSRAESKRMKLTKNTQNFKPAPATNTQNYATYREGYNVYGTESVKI
pEC50: −log10 of the molar value.
measured.attribute: pEC50

1. N[C@H](C(=O)O)c1cc(=O)[nH]o1	< 3.00
2. N[C@H](C(=O)O)[C@H]1CC(O)=NO1	< 3.00
3. N[C@H](C(=O)O)[C@@H]1CC(O)=NO1	3.77
4. N[C@@H](C(=O)O)[C@@H]1CC(O)=NO1	< 3.00
5. N[C@@H](C(=O)O)[C@H]1CC(O)=NO1	< 3.00

* * *

target: Glutamate NMDA receptor; assay: Displacement of [3H]CGP-39653 from NMDA receptor in rat cortical membrane
pKi: −log10 of the molar value.
In this section, each of the molecules is paired with its reported pKi.
measured.attribute: pKi

1) N[C@@H](C(=O)O)[C@@H]1CC(O)=NO1	4.12
2) N[C@@H](C(=O)O)[C@H]1CC(O)=NO1	6.17
3) N[C@H](C(=O)O)[C@H]1CC(O)=NO1	4.02
4) N[C@H](C(=O)O)[C@@H]1CC(O)=NO1	4.39

* * *

In this section we review reported Log IC50 values for a set of molecules.
assay: Displacement of [3H]AMPA from AMPA receptor in rat cortical membrane; format: cell membranes
measured.attribute: Log IC50

1) N[C@@H](C(=O)O)[C@@H]1CC(O)=NO1	-4.92
2) NC(C(=O)O)C1CC(O)=NO1 (racemic; form 2) [TRICHOLOMIC ACID]	-4.73
3) N[C@H](C(=O)O)[C@@H]1CC(O)=NO1	-6.02
4) NC(C(=O)O)C1CC(O)=NO1 (racemic; form 1) [TRICHOLOMIC ACID]	-5.86

* * *

biological target: Glutamate NMDA receptor; experiment: Displacement of [3H]CGP-39653 from NMDA receptor in rat cortical membrane
pIC50: −log10 of the molar value.
measured.attribute: pIC50

1. NC(C(=O)O)C1CC(O)=NO1 (racemic; form 2) [TRICHOLOMIC ACID]	4.14
2. NC(C(=O)O)C1CC(O)=NO1 (racemic; form 1) [TRICHOLOMIC ACID]	5.82

* * *

target: Glutamate receptor ionotropic, kainate 2 (Rattus norvegicus); experiment: Activity at rat cloned iGluR6 expressed in human HEK293 cells by calcium imaging assay
Sequence (P42260 whole entry): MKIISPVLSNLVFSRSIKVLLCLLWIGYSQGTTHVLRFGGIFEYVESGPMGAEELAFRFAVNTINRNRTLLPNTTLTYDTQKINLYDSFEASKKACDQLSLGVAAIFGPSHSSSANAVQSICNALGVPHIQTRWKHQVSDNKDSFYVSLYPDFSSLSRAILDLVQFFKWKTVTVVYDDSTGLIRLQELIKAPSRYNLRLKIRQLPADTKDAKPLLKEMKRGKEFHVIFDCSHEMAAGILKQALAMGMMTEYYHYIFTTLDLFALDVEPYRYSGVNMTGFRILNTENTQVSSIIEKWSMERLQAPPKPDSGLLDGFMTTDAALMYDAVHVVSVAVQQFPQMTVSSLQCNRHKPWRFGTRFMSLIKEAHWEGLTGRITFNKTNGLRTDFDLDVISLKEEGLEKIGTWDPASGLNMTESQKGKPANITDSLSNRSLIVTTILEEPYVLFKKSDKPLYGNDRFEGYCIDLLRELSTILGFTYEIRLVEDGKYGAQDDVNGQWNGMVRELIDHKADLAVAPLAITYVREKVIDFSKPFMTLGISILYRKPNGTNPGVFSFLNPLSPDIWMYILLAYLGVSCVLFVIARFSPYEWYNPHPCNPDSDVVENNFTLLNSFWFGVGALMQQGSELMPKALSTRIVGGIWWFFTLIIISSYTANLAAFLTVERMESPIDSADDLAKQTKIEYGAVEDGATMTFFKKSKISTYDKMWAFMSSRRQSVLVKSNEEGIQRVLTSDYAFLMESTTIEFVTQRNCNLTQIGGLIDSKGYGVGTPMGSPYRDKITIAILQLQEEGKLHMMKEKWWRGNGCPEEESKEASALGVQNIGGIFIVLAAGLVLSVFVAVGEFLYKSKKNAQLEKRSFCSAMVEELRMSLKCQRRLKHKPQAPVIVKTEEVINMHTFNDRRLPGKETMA
measured.attribute: EC50

1. N[C@H](C(=O)O)[C@@H]1CC(O)=NO1	82 µM
2. N[C@H](C(=O)O)[C@H]1CC(O)=NO1	> 1000 µM
3. N[C@H](C(=O)O)c1cc(=O)[nH]o1 [IBOTENIC ACID]	> 1000 µM
4. N[C@@H](C(=O)O)[C@H]1CC(O)=NO1	> 1000 µM
5. N[C@@H](C(=O)O)[C@@H]1CC(O)=NO1	> 1000 µM

* * *

Parameter EC50: see the listing below.
target: Glutamate receptor ionotropic, kainate 1 (Rattus norvegicus); test: Activity at rat cloned iGluR5 expressed in human HEK293 cells by calcium imaging assay
measured.attribute: EC50

1. N[C@@H](C(=O)O)[C@@H]1CC(O)=NO1	> 1000 µM
2. N[C@H](C(=O)O)c1cc(=O)[nH]o1	> 1000 µM
3. N[C@H](C(=O)O)[C@H]1CC(O)=NO1	> 1000 µM
4. N[C@H](C(=O)O)[C@@H]1CC(O)=NO1	280 µM
5. N[C@@H](C(=O)O)[C@H]1CC(O)=NO1	> 1000 µM

* * *

assay: Displacement of [3H]AMPA from AMPA receptor in rat cortical membrane; assay type: cell membranes
pIC50: −log10 of the molar value.
measured.attribute: pIC50

1. NC(C(=O)O)C1CC(O)=NO1 (racemic; form 2) [TRICHOLOMIC ACID]	4.72
2. N[C@@H](C(=O)O)[C@@H]1CC(O)=NO1	4.92
3. NC(C(=O)O)C1CC(O)=NO1 (racemic; form 1) [TRICHOLOMIC ACID]	5.96
4. N[C@H](C(=O)O)[C@@H]1CC(O)=NO1	6.02

* * *

target: Glutamate receptor 2 (Rattus norvegicus) (UniProt P19491); test: Activity at rat cloned iGluR2 expressed in human HEK293 cells by calcium imaging assay relative to L-glutamate; type: cell-based; design: concentration or dose not given beside the values
measured.attribute: Activity (%)

1. N[C@H](C(=O)O)c1cc(O)no1 [IBOTENIC ACID]	2
2. N[C@@H](C(=O)O)[C@@H]1CC(O)=NO1	14
3. N[C@H](C(=O)O)[C@H]1CC(O)=NO1	20
4. N[C@@H](C(=O)O)[C@H]1CC(O)=NO1	13
5. N[C@H](C(=O)O)[C@@H]1CC(O)=NO1	74

* * *

assay: Displacement of [3H]KA from kainate receptor in rat cortical membrane; type: cell membranes
Label 1 when IC50 is strictly below 6 µM; at or above that, label 0.

1) NC(C(=O)O)C1CC(O)=NO1 (racemic; form 1) [TRICHOLOMIC ACID]	1
2) N[C@H](C(=O)O)[C@H]1CC(O)=NO1	0
3) N[C@H](C(=O)O)c1cc(O)no1	0
4) N[C@H](C(=O)O)[C@@H]1CC(O)=NO1	1
5) N[C@@H](C(=O)O)[C@H]1CC(O)=NO1	0
6) N[C@@H](C(=O)O)[C@@H]1CC(O)=NO1	0

* * *

target: Glutamate receptor 4 (Rattus norvegicus); assay: Activity at rat cloned iGluR4 expressed in human HEK293 cells by calcium imaging assay relative to L-glutamate; format: cell-based; set-up: concentration or dose not given beside the values
Sorting guide: entries reporting Activity beneath 30% go in the criterion met pile, the rest go in the criterion not met pile.

1. N[C@H](C(=O)O)[C@H]1CC(O)=NO1	criterion not met
2. N[C@@H](C(=O)O)[C@@H]1CC(O)=NO1	criterion met
3. N[C@@H](C(=O)O)[C@H]1CC(O)=NO1	criterion met
4. N[C@H](C(=O)O)c1cc(O)no1	criterion not met
5. N[C@H](C(=O)O)[C@@H]1CC(O)=NO1	criterion not met

* * *

target: Metabotropic glutamate receptor 1 (Rattus norvegicus); experiment: Activity at rat cloned mGluR1a expressed in CHO cells assessed as effect on cAMP accumulation; type: functional, cell-based; conditions: read-out: EC50
Sequence (P23385 whole entry): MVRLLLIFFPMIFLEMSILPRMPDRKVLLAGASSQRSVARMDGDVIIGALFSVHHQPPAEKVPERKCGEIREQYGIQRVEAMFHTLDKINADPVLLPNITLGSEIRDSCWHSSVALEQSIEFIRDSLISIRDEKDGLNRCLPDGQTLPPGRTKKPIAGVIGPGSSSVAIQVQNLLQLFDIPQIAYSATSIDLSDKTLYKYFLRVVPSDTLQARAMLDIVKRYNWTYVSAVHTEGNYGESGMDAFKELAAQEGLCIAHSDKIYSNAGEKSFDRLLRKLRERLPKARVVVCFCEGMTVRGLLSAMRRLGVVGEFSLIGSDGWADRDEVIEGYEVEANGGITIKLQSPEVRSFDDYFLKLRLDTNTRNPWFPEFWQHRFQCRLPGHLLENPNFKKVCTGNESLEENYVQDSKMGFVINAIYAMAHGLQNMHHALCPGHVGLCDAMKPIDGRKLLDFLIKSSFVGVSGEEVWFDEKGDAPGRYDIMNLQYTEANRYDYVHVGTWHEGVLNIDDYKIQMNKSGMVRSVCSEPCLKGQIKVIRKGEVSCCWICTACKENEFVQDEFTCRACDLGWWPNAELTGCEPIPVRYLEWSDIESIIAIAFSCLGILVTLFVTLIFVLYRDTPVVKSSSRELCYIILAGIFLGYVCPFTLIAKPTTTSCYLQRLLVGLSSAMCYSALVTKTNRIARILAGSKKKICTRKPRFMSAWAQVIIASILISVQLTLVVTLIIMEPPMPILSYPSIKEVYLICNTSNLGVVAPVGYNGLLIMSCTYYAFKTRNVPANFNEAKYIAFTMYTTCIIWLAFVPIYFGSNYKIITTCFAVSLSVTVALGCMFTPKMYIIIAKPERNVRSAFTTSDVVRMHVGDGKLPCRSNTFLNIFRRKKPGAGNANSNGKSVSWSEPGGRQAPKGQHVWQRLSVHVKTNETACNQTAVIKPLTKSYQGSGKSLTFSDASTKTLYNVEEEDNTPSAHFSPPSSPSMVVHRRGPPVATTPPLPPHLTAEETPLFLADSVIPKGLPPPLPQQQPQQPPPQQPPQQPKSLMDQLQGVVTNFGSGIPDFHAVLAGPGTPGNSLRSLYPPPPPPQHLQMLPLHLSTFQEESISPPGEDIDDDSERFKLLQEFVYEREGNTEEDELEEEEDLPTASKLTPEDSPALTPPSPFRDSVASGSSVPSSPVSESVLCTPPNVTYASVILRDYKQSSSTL
measured.attribute: log10 of EC50 (log10 of the value in µM)

1. N[C@H](C(=O)O)c1cc(=O)[nH]o1	1.63
2. NC(C(=O)O)C1CC(O)=NO1 (racemic; form 2) [TRICHOLOMIC ACID]	2.04
3. N[C@H](C(=O)O)[C@H]1CC(O)=NO1	1.91
4. NC(C(=O)O)C1CC(O)=NO1 (racemic; form 1) [TRICHOLOMIC ACID]	2.90
5. N[C@H](C(=O)O)[C@@H]1CC(O)=NO1	2.79
